system: primary rat alveolar macrophages; experiment: LPS-induced NO production by rat alveolar macrophages; assay type: cell-based; conditions: LPS 10 ng/ml, 24 h, liposomes; LPS without phospholipid = 100%

- molecule: "CCCCCCCC(=O)OCC(COP(=O)(O)OCC(O)CO)OC(=O)CCCCCCC (stereo not drawn)"
  LPS-induced NO production: "failed to antagonize"
- molecule: "CCCCCCCCCCCCCCCCCC(=O)OCC(COP(=O)(O)OCC(O)CO)OC(=O)CCCCCCCCCCCCCCCCC (stereo not drawn)"
  LPS-induced NO production: "failed to antagonize"
- molecule: "CCCCCCCCCCCCCCCC(=O)OCC(COP(=O)(O)OCC(O)CO)OC(=O)CCCCCCCCCCCCCCC (stereo not drawn) [DPPG, dipalmitoyl-phosphatidylglycerol, reference compound]"
  LPS-induced NO production: "failed to antagonize"

###

test system: differentiated U937 cells; assay: LPS-induced TNF-α secretion by differentiated U937 cells; assay type: cell-based, human; conditions: LPS 10 ng/ml, 6 h, liposomes; LPS without phospholipid = 100%

- molecule: "CCCCCCCCCCCCCCCC(=O)OCC(COP(=O)(O)OCC(O)CO)OC(=O)CCCCCCCCCCCCCCC (stereo not shown) [DPPG, dipalmitoyl-phosphatidylglycerol, reference compound]"
  LPS-induced TNF-α production: "failed to antagonize"
- molecule: "CCCCCCCC(=O)OCC(COP(=O)(O)OCC(O)CO)OC(=O)CCCCCCC (stereo not shown)"
  LPS-induced TNF-α production: "failed to antagonize"
- molecule: "CCCCCCCCCCCCCCCCCC(=O)OCC(COP(=O)(O)OCC(O)CO)OC(=O)CCCCCCCCCCCCCCCCC (stereo not shown)"
  LPS-induced TNF-α production: "failed to antagonize"
